# assay-remarks: blocking HSF1-driven luciferase expression – cell-based, NIH3T3, luminescence, primary screen (AID 2098);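 further: luciferase reports HSF-1 transcriptional activity via heat shock element; 0% = median of DMSO wells and -100% = zero luminescence signal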
# condition-summary: NIH3T3-HGL HSE-luciferase, MG132-induced, luminescence 8 h; stronger effect = lower value; screened at 7.5 µM (by protocol)
The campaign covered roughly 300,000 compounds. About 2,300 (0.77%) were called active. Many of the other results were omitted from the sample, so actives are more common in it than they were.
Would you mind telling me the reported activity change, negative = inhibition of each entry?
Record the value in %, omitting the unit from your answer.

Task: What measured activity change, negative = inhibition goes with COC(=O)Cc1[nH]n(-c2nc3ccccc3s2)c(=O)c1C(C)=Nc1ccc(OC)cc1 ?
Output: -58.9

Task: What measured activity change, negative = inhibition goes with NC(=O)C1=C[C@H](c2csc3ccccc23)C[C@H](OCc2ccc(CO)cc2)O1 ?
Output: 5.45

Task: What measured activity change, negative = inhibition goes with COc1ccc(-c2nc(-c3ccccc3)no2)c(OC)c1 ?
Output: -66.8

Task: What measured activity change, negative = inhibition goes with Cc1ccc(/C=N/NC(=S)Nc2cccc(S(=O)(=O)N(C)C)c2)o1 ?
Output: -4.55

Task: What measured activity change, negative = inhibition goes with CC12CCC(=O)N1C(C(=O)NCCN1C(=O)S/C(=C\c3ccccc3F)C1=O)CS2 (stereo unspecified) ?
Output: -0.188

Task: What measured activity change, negative = inhibition goes with C=C(C)C(=O)O[C@H]1C/C(C)=C\C(=O)/C=C(\C)[C@H](O)[C@@H]2OC(=O)C(=C)[C@@H]21 ?
Output: -73.5

Task: What measured activity change, negative = inhibition goes with COc1ccccc1Cc1nc(-c2ccc(C)cc2)no1 ?
Output: 12

Task: What measured activity change, negative = inhibition goes with CCCOc1ccc(Cl)cc1Nc1nc(NCCO)nc(N2CCCC2)n1 ?
Output: 1.49

Task: What measured activity change, negative = inhibition goes with CCCNC(=S)N1CCCC(c2nc3ccccc3[nH]2)C1 (stereo unspecified) ?
Output: -82

Task: What measured activity change, negative = inhibition goes with C=CCn1c(C)cc(C(=O)CN2C(=O)c3ccccc3C2=O)c1C ?
Output: 8.2

Task: What measured activity change, negative = inhibition goes with Cc1nc(C)c(-c2nnc(-c3cccc(S(=O)(=O)N(C)C)c3)o2)cc1C(=O)NN ?
Output: -63.1

---

# assay-remarks: blocking HSF1-driven luciferase expression – cell-based, NIH3T3, luminescence, primary screen (AID 2098);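 further: luciferase reports HSF-1 transcriptional activity via heat shock element; 0% = median of DMSO wells and -100% = zero luminescence signal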
# condition-summary: NIH3T3-HGL HSE-luciferase, MG132-induced, luminescence 8 h; stronger effect = lower value; screened at 7.5 µM (by protocol)
The campaign covered roughly 300,000 compounds. About 2,300 (0.77%) were called active. The entries come from a sample that favours actives as a whole.
Would you mind telling me the reported activity change, negative = inhibition of each entry?
Record the value in %, omitting the unit from your answer.

Task: What measured activity change, negative = inhibition goes with COc1ccc(CCNCC(O)Cn2ccc3ccccc32)cc1OC (stereo not given) ?
Output: -87.6

Task: What measured activity change, negative = inhibition goes with Cc1ccc(NC(=O)CC(=O)Nc2ccc(C)cc2)cc1 ?
Output: 11.5

Task: What measured activity change, negative = inhibition goes with C[C@@H]1O[C@@H](OC[C@H]2O[C@@H](Oc3c(-c4ccc(O)cc4)oc4cc(O)cc(O)c4c3=O)[C@H](O)[C@@H](O)[C@@H]2O)[C@H](O)[C@H](O)[C@H]1O ?
Output: 2.53

Task: What measured activity change, negative = inhibition goes with COc1ccc(Cn2c(=O)sc3ccccc32)cc1OC ?
Output: -4.6

Task: What measured activity change, negative = inhibition goes with O=C(NCc1ccccc1)c1ccc(CNc2c(N3CCCC3)c(=O)c2=O)cc1 ?
Output: -3.59
